Test system: M14 melanoma
test: NCI-60 one-dose screen, 48 h
conditionSummary: 10 µM unless noted
The panel holds about 83,000 compounds, 20% with a hit somewhere; the sample as a whole holds those more often. Calls of active or inactive are those of the source. How the source made its calls: active means growth percent below 10; inactive means the rest.
Please state which outcome applies, choosing from label 1 = active, label 0 = inactive

Below are worked cases with known answers.
Nc1cc(-c2c[nH]c3ccc(Cl)cc23)nc2cc(-c3c[nH]c4ccc(Cl)cc34)nn12 | label 0
Cn1ccnc1C(=O)/C=C/c1ccc(NC(=O)Nc2ccc(F)cc2)cc1 | label 0
NS(=O)(=O)c1ccc(Nc2nc(Nc3ccccc3)nc(-n3nc(-c4ccccc4)cc3-c3ccccc3)n2)cc1 | label 0
COc1cc(/C=C/C(=O)c2cc(OC)c(OC)c(OC)c2)ccc1OCc1ccccc1 | label 0
Cc1cc(C(=O)Nc2sc3c(c2C(N)=O)CCC(=O)C3)ccc1OCCN1CCCCC1 | label 0

// outcome(item) with item = Cc1nc(-c2cc3ccccc3oc2=O)ccc1C(=O)/C=C/c1ccc(Cl)c(Cl)c1
label 0

---

System: T-47D breast
test: NCI-60 one-dose screen, 48 h (100 = growth as untreated, 0 = no growth, -100 = all killed)
conditionSummary: 10 µM unless noted
The panel holds about 83,000 compounds, 20% with a hit somewhere; the sample as a whole holds those more often.
Reported growth maps to class as: low bracket: < 50%; middle bracket: ≥ 50% and < 90%; high bracket: ≥ 90%

CCCSc1nc(Nc2ccc(/C(C)=N\NC(N)=S)cc2)c(C#N)c(-c2ccc(OC)cc2)n1 | middle bracket
CC(=O)Nc1cc(F)cc(-c2ccc3[nH]cc(-c4ccccc4)c3n2)c1 | low bracket
COc1cccc(NC2=CC(=O)C(C)=C(C)C2=O)c1 | low bracket

Field: class (growth) — entry: Nc1c(C(=O)Nc2ccc(Cl)cc2)sc2nc(-c3cnccn3)cc(-c3cccs3)c12
high bracket

Lab note: sort CCN1CCN(/C(=N\c2sc(-c3ccccc3)nc2-c2ccccc2)c2ccccc2)CC1 into the matching growth band.
middle bracket

Just checking, what class would you give C=CCn1c(SCC(=O)c2ccc(Br)cc2)nnc1-c1c[nH]c2ccccc12 here?
high bracket

Any idea which band O=C(N/N=C/c1ccc([N+](=O)[O-])o1)c1[nH]c2ccc(Br)cc2c1-c1ccccc1 is in?
middle bracket

Field: class (growth) — entry: O=C(c1ccc(O)cc1)C1[C@H](c2ccc(Cl)cc2)[C@@H](c2ccccc2)NC12C(=O)Nc1ccc(Cl)cc12 (some centres undefined)
low bracket

---

Tested on: KM12 colon
test: NCI-60 one-dose screen, 48 h (100 = growth as untreated, 0 = no growth, -100 = all killed)
conditionSummary: 10 µM unless noted
Compounds without any hit were thinned out: in the full panel of roughly 83,000, 20% have a hit.
Decide by growth: equal to or exceeding 40% means 1.0, less means 0.0.

Does the reported growth for C#Cc1nc(C2=C(C)C(OC(C)=O)/C(=N/OC(C)=O)C2)cs1 (stereo not given) fall at or above the 40% mark?
0.0

Is it the case that CCOC(=O)c1c(Nc2ccccc2)nn2c(N)c(C#N)c(-c3ccc(F)cc3)nc12 has growth reaching or exceeding 40%?
1.0

Entry N#Cc1nc(-c2ccccc2)oc1S(=O)(=O)N1CCN(CCc2ccccn2)CC1 : is its growth no less than 40%?
1.0

Could you tell me if the measured growth of CCOC(=O)c1sc(N)c(C(=O)OCC)c1C reaches 40% or more?
1.0

Threshold query (growth >= 40%) on COc1cc(/C=C/C(=O)c2cc(OC)c(OC)c(OC)c2)ccc1OCc1ccc(F)cc1
0.0

Record N#Cc1nc(-c2ccccc2)oc1S(=O)(=O)N1CCCCC1 ; criterion: growth no lower than 40%. Met?
1.0

Threshold query (growth >= 40%) on COc1ccc(C(=O)/C=C/c2ccc(Oc3nc(NCCO)nc(N4CCOCC4)n3)c(OC)c2)cc1
0.0

Where these numbers come from: PubChem BioAssay (NCI)
